Consider the following binders; for each one, report its pKd.
study-system: Recombinant Human DLL4 (human, UniProt Q9NR61 27-524)
Sequence (Q9NR61 27-524 limits assumed): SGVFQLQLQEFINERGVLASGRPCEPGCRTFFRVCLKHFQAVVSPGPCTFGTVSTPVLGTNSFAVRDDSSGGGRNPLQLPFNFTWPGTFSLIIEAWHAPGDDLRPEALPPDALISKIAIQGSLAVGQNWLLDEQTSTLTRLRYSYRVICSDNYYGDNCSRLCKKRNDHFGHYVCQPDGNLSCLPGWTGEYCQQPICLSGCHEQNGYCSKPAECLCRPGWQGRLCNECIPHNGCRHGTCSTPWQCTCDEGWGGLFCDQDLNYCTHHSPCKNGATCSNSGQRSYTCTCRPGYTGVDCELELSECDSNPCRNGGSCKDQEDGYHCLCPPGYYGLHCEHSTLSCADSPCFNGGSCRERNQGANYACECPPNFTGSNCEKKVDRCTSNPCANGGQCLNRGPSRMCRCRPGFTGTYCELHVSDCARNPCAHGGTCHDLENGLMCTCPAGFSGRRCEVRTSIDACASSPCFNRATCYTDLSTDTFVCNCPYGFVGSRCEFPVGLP
experiment-summary: SPR (BIACORE)
Value format note: pKd is -log10 of concentration (mol/L); just state the number.

[ask] Which pKd is listed for AB306 (antibody, human IgG1, kappa, V domains shown, CDR-grafted parent antibody) VH: EVQLVESGGGLVQPGRSLRLSCAVSGGSISSSSYYWGWIRQAPGKGLEWIGDIYYTGSTYYNPSLKSRVTISVDTAKNSFYLQMNSLRAEDTAVYYCARQALAMGGGSDKWGQGTLVTVSS VL: DYQLTQSPSSLSASVGDRVTITCSGQRLGDKYASWYQQKPGKSPKLVIYEDSKRPSGIPSRFSGSNSGDDATLTISSLQPEDVATYYCQAWDRDTGVFGQGTKVEIKR ?
[reply] 8.66

[ask] Another binder to look at: AB309 (antibody, human IgG1, kappa, V domains shown, CDR-grafted parent antibody) VH: EVQLVESGGGLVQPGRSLRLSCAASGFTFSNFPMAWVRQAPGKGLEWVATISSSDGTTYYRDSVKGRFTISRDNAKNSLYLQMNSLRAEDTAVYYCARGYYNSPFAYWGQGTLVTVSS VL: DIQMTQSPSSLSASVGDRVTITCRASEDIYSNLAWYQQKPGKAPKLLIYDTNNLADGVPSRFSGSGSGTDFTLTISSLQPEDVATYYCQQYNNYPPTFGQGTKVEIKR
[reply] 7.66

[ask] Same read-out for AB334 (antibody, human IgG1, kappa, V domains shown, CDR-grafted parent antibody) VH: QVQLQQSGAELMKPGASVKLSCKATGFTFSNFPMAWVKQRPGHGLEWVATISSSDGTTYYRDSVKGKFTITRDNSSNTLYIQLISLTTEDSAIYYCARGYYNSPFAYWGQGTLLTVSA VL: DILMTQSPAILSVSPGERVSFSCRASEDIYSNLAWYQQRTNGAPRLLIYDTNNLADGVPSRFSGGGSGTDFTLSINSVESEDIADYYCQQYNNYPPTFGAGTKLELKR ?
[reply] 7.85
